experiment: Amiodarone quantification in tissues by LC/MS after pericardial repair with amiodarone-soaked EBM patch, or IV amiodarone control, ovine model; format: in vivo; conditions: sheep, ventricles, 1000 mg/day, Maximum IV delivery-positive control Average, 1,000 mg/day via IV for 14 days
Property Label: concentration at 14 day (ng/g)
Return type: number; implicit unit ng/g.

// recorded concentration at 14 day for CCCCc1oc2ccccc2c1C(=O)c1cc(I)c(OCCN(CC)CC)c(I)c1 [Amiodarone, amiodarone] : 9000

====

test: Amiodarone quantification in tissues by LC/MS after pericardial repair with amiodarone-soaked EBM patch, or IV amiodarone control, ovine model; format: in vivo; conditions: sheep, right atrium, 1000 mg/day, Maximum IV delivery-positive control Average, 1,000 mg/day via IV for 14 days
Property Label: concentration at 14 day (ng/g)
Report only the number, with the unit ng/g understood.

# concentration at 14 day of CCCCc1oc2ccccc2c1C(=O)c1cc(I)c(OCCN(CC)CC)c(I)c1 [Amiodarone, amiodarone] = 33000
